- Test system: SMN2 minigene mRNA (SMN2-A minigene) in HEK293H cells
- TEST: SMN2 minigene mRNA splicing RT-qPCR assay in cultured cells
- Assay type: cell-based, human
- MEASUREMENT_CONDITIONS: Homo sapiens, HEK293-H; concentration increasing full length SMN2 mRNA 1.5-fold relative to vehicle-treated cells; HEK293H cells with SMN2-A minigene, 24 hours, 7-point concentration data; read-out: EC1.5x for production of full length SMN2 mRNA
- Procedure: The reverse transcription-quantitative PCR-based (RT-qPCR) assay is used to quantify the level of the full length SMN2 minigene mRNA containing SMN2 exon 7 in a HEK293H cell line stably transfected with said minigene and treated with a test compound. Protocol. […] The increase of SMN2 minigene FL mRNA relative to that in cells treated with vehicle control is determined from real-time PCR data using a modified ΔΔCt method (as described in Livak and Schmittgen, Methods, 2001, 25:402-8). […]
PROPERTY_NAME: EC (1.5-fold increase)

Below, 3 compounds whose answers are already recorded.
Challenge: Print SMN2 minigene mRNA (SMN2-A minigene) in HEK293H cells EC (1.5-fold increase) for `COc1ccc(-c2cc(=O)n3cc(-c4ccnc(C)c4)ccc3n2)cc1OC` .
Response given: 1 to 3 µM

Challenge: Print SMN2 minigene mRNA (SMN2-A minigene) in HEK293H cells EC (1.5-fold increase) for `CCN1CC=C(c2ccc3nc(-c4cc5cnc(C)cn5n4)cc(=O)n3c2)CC1` .
Response given: < 0.1 µM

Challenge: Print SMN2 minigene mRNA (SMN2-A minigene) in HEK293H cells EC (1.5-fold increase) for `COc1ccc(-c2cc(=O)n3cc(N[C@@H]4CCN(C)C4)ccc3n2)cc1F` .
Response given: 1 to 3 µM

Next up:
Challenge: Print SMN2 minigene mRNA (SMN2-A minigene) in HEK293H cells EC (1.5-fold increase) for `COc1ccc(-c2cc(=O)n3cc(C4=C[C@H]5CC[C@@H](C4)N5)ccc3n2)cc1OC` .
Response given: 0.1 to 0.3 µM

Value source: patent US11753407B2
